# measurement.parameters: in n-propanol, 278.15 K
measure.name: solubility (mole fraction)

Quick one: solubility (mole fraction) for `CCCCCCCC(=O)NCC(=O)O` ?
0.0254

* * *

# measurement.parameters: in methyl acetate, 278.15 K
measure.name: solubility (mole fraction)
Keep the answer to the number alone.

Could you share which solubility (mole fraction) value was measured for `CCCCCCCC(=O)NCC(=O)O` ?
0.00288

* * *

# measurement.parameters: in n-butanol, 308.05 K
measure.name: solubility (mole fraction)
Could you respond with only the numeric value?

Param item = `CCCCCCCC(=O)NCC(=O)O` ; retrieve measured solubility (mole fraction).
0.167

* * *

# measurement.parameters: in 2-pentanone, 278.15 K
measure.name: solubility (mole fraction)
// response body must contain only the number

// lookup solubility (mole fraction) for `CCCCCCCC(=O)NCC(=O)O`
0.00666
